The measured values listed here are drawn from patent US20250353873A1.

System: human APOE RNA
Method summary: Activity in APOE C57BL/6NTac-Apoeem7250 knock-in mice, single ICV bolus, 20 weeks (Example 13)
Format: in vivo
Experimental parameters: spinal cord; single ICV bolus 300 μg; 20 weeks post treatment; normalized to mouse Ppia
Strand notation (5' to 3'): a small letter for the sugar, then the base; units joined by * are phosphorothioate-linked, units joined directly phosphodiester-linked; [ ] holds rarer units or linkages, { } end groups; capitals alone tell only the bases. [ms] = mesyl phosphoramidate linkage; e = 2'-O-(2-methoxyethyl) (MOE); k = constrained ethyl (cEt); [5mC] = 5-methylcytosine; d = 2'-deoxy (DNA)
Endpoint: APOE RNA (% control) Spinal Cord
Please reply with the bare figure in % control and do not write the unit itself.

## Input # get_value(readout='APOE RNA (% control) Spinal Cord', item= 1778113 (eA*e[5mC]eTeTkG*kG*dT*dG[ms]dA[ms]dA*dT*d[5mC]*dT*dT*dT*dA[ms]eT*eT*eA*eA; antisense) [Compound 1778113] )
## Output 24

## Input Next entry: 1736525: 6-10-4 MOE gapmer CTTGGTGAATCTTTATTAAA, linkages sooosszzsssssssssss (e[5mC]*eTeTeGeG*eT*dG[ms]dA[ms]dA*dT*d[5mC]*dT*dT*dT*dA*dT*eT*eA*eA*eA) [compound 1736525]
## Output 118

## Input Try the substance 1778128: modified oligonucleotide complementary to human APOE RNA (eA*e[5mC]eTeTkGkG*dT*dG[ms]dA[ms]dA*dT*d[5mC]*dT*dT*dT*dA[ms]kTeT*eA*eA; antisense) [compound 1778128]
## Output 22

## Input What do you get for 1785598: modified oligonucleotide complementary to human APOE RNA (k[5mC]*kT*kT*dG[ms]dG[ms]dT[ms]dG[ms]dA[ms]dA[ms]dT*d[5mC]*dT*dT*dT*dA*dT[ms]kT*kA*dA[ms]kA; antisense) [compound 1785598] ?
## Output 30

## Input Same thing, different substance: 1778131: modified oligonucleotide complementary to human APOE RNA (eA*e[5mC]eTeTeGkG*dT*dG[ms]dA[ms]dA*dT*d[5mC]*dT*dT*dT*dA[ms]kTkT*eA*eA; antisense) [compound 1778131]
## Output 43

## Input Same lookup for 1757568 (eA*e[5mC]eTeTeG*dG*dT*dG*dA*dA*dT*d[5mC]*dT*dT*dT*kAkTeT*eA*eA; antisense) [Compound 1757568] , please.
## Output 58

## Input For 1778129: modified oligonucleotide complementary to human APOE RNA (eA*e[5mC]eTeTeG*kG*dT*dG[ms]dA[ms]dA*dT*d[5mC]*dT*dT*dT*dA[ms]kT*kT*eA*eA; antisense) [compound 1778129] then?
## Output 24

## Input Can you handle 1778122 (eA*e[5mC]eTeTeG*eG*dT*dG[ms]dA[ms]dA*dT*d[5mC]*dT*dT*dT*dA[ms]kT*kT*eA*eA; antisense) [Compound 1778122] next?
## Output 34

## Input Then 1757544: mixed MOE/cEt gapmer TTGGTGAATCTTTATTAA, sugar ekeeeddddddddeeeee, linkages soossssssssssooss (eT*kTeGeG*eT*dG*dA*dA*dT*d[5mC]*dT*dT*dT*eAeTeT*eA*eA) [compound 1757544] ?
## Output 96

## Input For 1766559 (eT*eTeGeGeT*dG[ms]dA[ms]dA[ms]dT*d[5mC]*dT*dT*dT[ms]dA[ms]dT*kTkAeA*eA*e[5mC]; antisense) [Compound 1766559] then?
## Output 74

## Input Another substance: 1757551: mixed MOE/cEt gapmer TTGGTGAATCTTTATTAA, sugar eeekkddddddddeeeee, linkages soossssssssssooss (eT*eTeGkG*kT*dG*dA*dA*dT*d[5mC]*dT*dT*dT*eAeTeT*eA*eA) [compound 1757551]
## Output 53
